# TEST_NAME: Quantitative High-Throughput drug screen in 47 multiple myeloma cell lines against the NCATS MIPE library collection: FR4_PLB cell viability assay (AID 1918924; also: nearly all actives have a fitted effect of over 35% in size)
# TEST_CONDITIONS: FR4_PLB myeloma cells viability, CellTiter-Glo ATP, 48 h; series mostly up to 45.8 µM
Results filed as inconclusive are left out. The source made the active and inactive calls. Calls follow the shape of the dose curve; as a rule, active = well fitted cell-killing curve with a large enough effect; inconclusive = small, poorly fitted or top-dose-only effect, or effect the other way; inactive = no such curve, though single readings can be large or run the other way.
Select the matching outcome among active, inactive

Completed entries (count: 3):
[[record]]
compound = "C=C(C)[C@H]1Cc2c(ccc3c2O[C@@H]2COc4cc(OC)c(OC)cc4[C@@H]2C3=O)O1"
discrete_label = "active"

[[record]]
compound = "C[C@@H]1[C@@H](CC(C[C@H]2O[C@@H]3O[C@]4(C)CC[C@@H]5[C@H](C)CC[C@@H]([C@H]2C)[C@@]35OO4)C[S+](=O)([O-])c2ccc(COC(=O)N(C)C)cc2)O[C@@H]2O[C@]3(C)CC[C@H]4[C@H](C)CC[C@@H]1[C@@]24OO3 (some centres not stated)"
discrete_label = "active"

[[record]]
compound = "C[C@@H]1O[C@@H](O[C@H]2C[C@@H](O)[C@]3(CO)[C@H]4[C@H](O)C[C@]5(C)[C@@H](C6=CC(=O)OC6)CC[C@]5(O)[C@@H]4CC[C@]3(O)C2)[C@H](O)[C@H](O)[C@H]1O"
discrete_label = "active"


Request: Dear colleague, could you share the recorded outcome for "CN1CCN(C(=O)O[C@H]2c3nccnc3C(=O)N2c2ccc(Cl)cn2)CC1" when you have a moment?
Result: inactive

Request: How did this test come out for COC[C@H]1OC(=O)c2coc3c2[C@@]1(C)C1=C(C3=O)C2CCC(=O)[C@@]2(C)C[C@H]1OC(C)=O (some centres not stated) ?
Result: active

Request: Please indicate how the test categorized "Cc1cc(SCc2sc(-c3ccc(C(F)(F)F)c(F)c3)nc2C)ccc1OCC(=O)O" .
Result: inactive

Request: # fetch the recorded call for "C#CCN(C)[C@H](C)Cc1ccccc1" here
Result: inactive

Request: Identify the outcome logged in this assay for the compound shown: "Fc1ccc(C(OCCN2CCN(CCCc3ccccc3)CC2)c2ccc(F)cc2)cc1"
Result: active

Request: Fill in: this test's call for "Cn1c(CCCC(=O)O)nc2cc(N(CCCl)CCCl)ccc21" is ___
Result: active

Request: What classification did "CN(C)CCc1ccc(O)cc1" end up with in this test?
Result: inactive

###

# TEST_CONDITIONS: Ebola virus entry assay, blue channel fluorescence
Calls of active or inactive are those of the source. Calls come from the whole dose curve.
The categories you may choose from are label 1 (active), label 0 (inactive)

[[record]]
compound = "COc1cc(C(=O)NCc2ccc(OCCN(C)C)cc2)cc(OC)c1OC"
discrete_label = "label 0"


API: the following record is the query input.
Request: Hello, I am checking results. What call was entered for CO/N=C1\CN(c2nc3c(cc2F)c(=O)c(C(=O)O)cn3C2CC2)CC1CN (stereo unspecified) ?
Result: label 0

###

# TEST_CONDITIONS: Ebola virus entry assay, blue channel fluorescence
Calls of active or inactive are those of the source. No rule for the calls is given here.
// one of T for active, F for inactive, no free text

Reference set (5 entries):
[[record]]
compound = "CNC1(C)C2CCC(C2)C1(C)C (configuration not stated)"
discrete_label = "T"

[[record]]
compound = "c1ccc2c(c1)Nc1ccccc1S2"
discrete_label = "F"

[[record]]
compound = "CN1C(=O)CC(C)(c2ccccc2)C1=O (configuration not stated)"
discrete_label = "F"

[[record]]
compound = "COC[C@@H](NC(C)=O)C(=O)NCc1ccccc1"
discrete_label = "F"

[[record]]
compound = "CN1CCN(C(=O)O[C@H]2c3nccnc3C(=O)N2c2ccc(Cl)cn2)CC1"
discrete_label = "F"


Here's the next entry for you.
Request: # fetch the recorded call for "CC[N+](C)(C)c1cccc(O)c1" here
Result: F
